Origin of measurements: ChEMBL document CHEMBL1961873

# target_desc: MAP kinase-activated protein kinase 3 (Homo sapiens)
# condition_set: at 0.1 µM
# Description: GSK_PKIS: MAPKAPK3 mean inhibition at 0.1 uM [Nanosyn]
quantity: inhibition (%)
I only need the number, in %, no unit after it.

Known inhibition results, listed for orientation:
Clc1ccc(CNc2nccc(-c3cnn4ncccc34)n2)cc1 = 7.41
CN(C)CCOc1ccc(-c2cc(-c3ccc4c(c3)CCC4=NO)c(-c3ccncc3)o2)cc1 = -1.27
COc1cc(Nc2ncc3c(C)nc(-c4cccc(Oc5ccccc5)c4)n3n2)cc(OC)c1OC = 8.12
CCc1nccc2c1nc(-c1nonc1N)n2CC = 0.57
Fc1ccc(-c2c(-c3ccncc3)nc3n2CCS3)cc1 = 1.43

Please look up its inhibition: `COc1cc(Nc2ncc(-c3ccccc3)o2)cc(OC)c1OC`
-1.98

Further, for `c1ccc(-c2n[nH]cc2-c2ccnc(-c3ccc(OCCN4CCOCC4)cc3)c2)nc1` ?
0.91

Also `COc1cc2ncn(-c3cc(OCc4cccs4)c(C(N)=O)s3)c2cc1OC` ?
1.75

Also need `NS(=O)(=O)c1ccc(N/N=C2\C(=O)Nc3ccc(-c4cnco4)cc32)cc1` , thanks.
-0.18

Please do the same for `FC(F)(F)c1cccc(Nc2nccc(-c3cnn4nc(-c5ccccc5)ccc34)n2)c1` as well.
3.72

Quick one: `Cc1ccc(C(=O)NC2CCC2)cc1-c1ccc(C(=O)NCC2CC2)cc1`
5.84

Same question for `CNC(=O)c1cncc(/C=C/c2c(C)cccc2C)c1` please.
0.6

Another compound to check: `COc1ccc2cc(-c3c(-c4ccncc4)nc(-c4ccc(S(C)(=O)=O)cc4C)n3C)ccc2c1`
-1.15

* * *

We begin with a simple list: items and their reported inhibition.
# target_desc: Calcium/calmodulin-dependent protein kinase type II subunit alpha (Homo sapiens) (UniProt Q9UQM7);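 also: reported values are averages (mean inhibition of CAMK2A)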
# Sequence (Q9UQM7 whole entry): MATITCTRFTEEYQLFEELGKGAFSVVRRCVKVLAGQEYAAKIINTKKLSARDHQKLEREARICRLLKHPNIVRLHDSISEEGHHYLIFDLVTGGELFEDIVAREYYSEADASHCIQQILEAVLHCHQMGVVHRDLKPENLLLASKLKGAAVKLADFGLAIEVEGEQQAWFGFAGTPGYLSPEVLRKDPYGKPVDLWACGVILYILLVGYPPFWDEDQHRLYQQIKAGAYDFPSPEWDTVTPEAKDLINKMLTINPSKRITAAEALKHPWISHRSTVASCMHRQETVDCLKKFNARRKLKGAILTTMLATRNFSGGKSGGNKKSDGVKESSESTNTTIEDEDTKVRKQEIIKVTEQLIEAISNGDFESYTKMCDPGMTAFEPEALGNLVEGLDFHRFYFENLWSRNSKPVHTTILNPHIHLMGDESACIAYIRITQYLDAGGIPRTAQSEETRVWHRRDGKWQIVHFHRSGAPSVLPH
# condition_set: at 0.1 µM
Give the value; after it, write the unit.

Entry `COc1cccc(/C=N/Nc2ncnc3c2cnn3-c2cccc(OC)c2)c1` has what inhibition?
0.99%

Continue with `COc1ccc(C2=C(N3CCc4ccccc43)C(=O)NC2=O)cc1`
5.74%

Same lookup for `COc1cccc(-n2cnc3c(N/N=C/c4ccncc4)ncnc32)c1` , please.
0.58%

// same read-out, input: `NC(=O)c1ccc(Oc2nccc(-c3c(-c4ccc(F)cc4)ncn3C3CCNCC3)n2)cc1`
3.03%

Further, for `O=C(Nc1n[nH]c2cc(-c3cc(F)ccc3F)ccc12)C1CC1` ?
1.96%

Same for `CCC(=O)Nc1ccc(C)c(-c2ccc(C(=O)NCC3CC3)cc2)c1`
1.27%

Next: `NC(=O)c1cc(-c2ccc(F)cc2)cc(-c2ccncc2)c1N`
3.47%

Try this molecule too: Nc1nccc(-c2c(-c3ccc(F)cc3)ncn2C2CCC(O)CC2)n1 (stereo unspecified)
-3.31%

Can you handle `CNC(=O)c1cncc(/C=C/c2c(C)cccc2C)c1` next?
2.12%

Request: `Clc1ccc(CNc2nccc(-c3cnn4ncccc34)n2)cc1`
2.51%

One more molecule: `N#Cc1ccc(Oc2nccc(-c3c(-c4ccc(F)cc4)ncn3C3CCNCC3)n2)cc1`
2.95%

* * *

# target_desc: Serine/threonine-protein kinase 4 (Homo sapiens) (UniProt Q13043);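 also: mean inhibition of MST1, part of the GSK PKIS dataset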
# Sequence (whole entry): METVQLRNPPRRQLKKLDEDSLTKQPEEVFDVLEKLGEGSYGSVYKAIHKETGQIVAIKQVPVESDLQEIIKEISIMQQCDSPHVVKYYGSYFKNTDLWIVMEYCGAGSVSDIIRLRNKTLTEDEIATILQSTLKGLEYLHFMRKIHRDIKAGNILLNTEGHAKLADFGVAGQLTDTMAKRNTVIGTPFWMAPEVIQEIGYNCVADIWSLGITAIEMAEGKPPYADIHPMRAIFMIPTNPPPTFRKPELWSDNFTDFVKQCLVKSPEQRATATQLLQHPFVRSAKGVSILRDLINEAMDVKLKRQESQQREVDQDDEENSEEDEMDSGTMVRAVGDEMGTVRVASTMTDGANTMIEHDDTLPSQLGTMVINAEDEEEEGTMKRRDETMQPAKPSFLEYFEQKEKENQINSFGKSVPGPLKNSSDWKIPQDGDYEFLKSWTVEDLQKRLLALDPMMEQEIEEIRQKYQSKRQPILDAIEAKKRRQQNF
# condition_set: at 1 µM
The reader will find reported inhibition values listed item by item below.
Record the value in %, omitting the unit from your answer.

Check out these entries, answers already filled in.
Fc1ccc(-c2ncn(C3CCNCC3)c2-c2ccnc(Oc3ccc(F)c(F)c3)n2)cc1 = 7.9
Fc1ccc(-c2ncn(C3CCNCC3)c2-c2ccnc(Oc3ccc(Oc4ccccc4)cc3)n2)cc1 = 4.68
COc1cccc(/C=N/Nc2ncnc3c2cnn3-c2cccc(OC)c2)c1 = 3.52
CCC(=O)Nc1ccc(C)c(-c2ccc(C(=O)NCC3CC3)cc2)c1 = 3.12

From here, focus on the item given below.
# input compound: `Fc1ccc(-c2c(-c3ccncc3)nc3n2CCS3)cc1` ; wanted: its inhibition
2.38

* * *

# target_desc: Tyrosine-protein kinase JAK1 (Homo sapiens);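 also: each value is a mean inhibition of JAK1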
# condition_set: at 1 µM
quantity: inhibition (%)
Express the result in % but write the number alone.

Below, each entry is followed by its recorded inhibition result.
c1ccc(Oc2ccc(Nc3ncc(-c4ccccc4)o3)cc2)cc1 = 3.56
COc1cc(Nc2ncc3c(C)nc(-c4cccc(Oc5ccccc5)c4)n3n2)cc(OC)c1OC = -5.12
COc1cccc(-n2cnc3c(N/N=C/c4ccncc4)ncnc32)c1 = 16.3

Next:
// returns reported inhibition for input `O=C(Nc1n[nH]c2cc(-c3cc(F)ccc3F)ccc12)C1CC1`
8.44

* * *

# target_desc: Casein kinase I isoform gamma-1 (Homo sapiens);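 also: reported as mean inhibition, part of GSK PKIS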
# condition_set: at 0.1 µM
quantity: inhibition
Please don't drop the unit; write it after the number.

Given the entry `CCS(=O)(=O)c1ccc(OC)c(Nc2ncc(-c3ccccc3Cl)o2)c1` , report its measured inhibition.
0.27%

Next compound: `CN(C)CCOc1ccc(-c2cc(-c3ccc4c(c3)CCC4=NO)c(-c3ccncc3)o2)cc1`
-1.03%

* * *

# target_desc: MAP kinase-activated protein kinase 3 (Homo sapiens)
# condition_set: at 0.1 µM
Listing: inhibition of selected molecules
Express your answer in %, writing the number without its unit.

O=C(NCC1CC1)c1ccc(-c2cccc(C(=O)NC3CC3)c2)cc1 = 2
CCS(=O)(=O)c1ccc(OC)c(Nc2ncc(-c3cccc(-c4ccccc4F)c3)o2)c1 = 1.08
COc1ccc2cc(-c3c(-c4ccncc4)nc(-c4ccc([S+](C)[O-])cc4C)n3C)ccc2c1 (stereo not given) = -6.68

Recorded inhibition for `NC(=O)c1cc(-c2ccc(F)cc2)cc(-c2ccncc2)c1N` , please?
4.03

Same question for `Cc1ccc(C(=O)NC(C)C)cc1-c1ccc(C(=O)NCC2CC2)cc1` please.
0.42

* * *

# target_desc: Mitogen-activated protein kinase 11 (Homo sapiens);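 also: values are mean percent inhibition of p38beta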
# condition_set: at 1 µM
quantity: inhibition
Hey, just the number and the unit after it is fine.

Solved entries:
COc1cc2ncn(-c3cc(OCCc4ccccc4)c(C(N)=O)s3)c2cc1OC = 2.87%
Cc1ccc(C(=O)NC(C)C)cc1-c1ccc(C(=O)NCC2CC2)cc1 = 37%
CCc1cccc(CC)c1/C=C/c1cncc(C(=O)NC)c1 = 4.99%
CCS(=O)(=O)c1ccc(OC)c(Nc2ncc(-c3ccccc3Cl)o2)c1 = 5.3%
CCC(=O)Nc1ccc(C)c(-c2ccc(C(=O)NCC3CC3)cc2)c1 = 36.8%
COc1cc(Nc2ncc3c(C)nc(-c4cccc(Oc5ccccc5)c4)n3n2)cc(OC)c1OC = 4.42%

Field: inhibition (Mitogen-activated protein kinase 11 (Homo sapiens)). Entry: `O=C1NC(=O)C(c2cccc(Cl)c2)=C1Nc1ccc(Cl)c(C(=O)O)c1`
4.6%

Would you kindly repeat that for `Clc1ccc(CNc2nccc(-c3cnn4ncccc34)n2)cc1` ?
6.53%

Similarly, `c1ccc(Oc2ccc(Nc3ncc(-c4ccccc4)o3)cc2)cc1` ?
4.25%

Likewise for `O=C(Nc1ccc(Oc2ccc3[nH]c(NC(=O)c4ccccc4)nc3c2)cc1)Nc1cc(C(F)(F)F)ccc1F` ?
32.5%

* * *

# target_desc: Calcium/calmodulin-dependent protein kinase type IV (Homo sapiens) (UniProt Q16566);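 also: each value is the mean of the measured CAMK4 inhibition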
# Sequence (whole entry): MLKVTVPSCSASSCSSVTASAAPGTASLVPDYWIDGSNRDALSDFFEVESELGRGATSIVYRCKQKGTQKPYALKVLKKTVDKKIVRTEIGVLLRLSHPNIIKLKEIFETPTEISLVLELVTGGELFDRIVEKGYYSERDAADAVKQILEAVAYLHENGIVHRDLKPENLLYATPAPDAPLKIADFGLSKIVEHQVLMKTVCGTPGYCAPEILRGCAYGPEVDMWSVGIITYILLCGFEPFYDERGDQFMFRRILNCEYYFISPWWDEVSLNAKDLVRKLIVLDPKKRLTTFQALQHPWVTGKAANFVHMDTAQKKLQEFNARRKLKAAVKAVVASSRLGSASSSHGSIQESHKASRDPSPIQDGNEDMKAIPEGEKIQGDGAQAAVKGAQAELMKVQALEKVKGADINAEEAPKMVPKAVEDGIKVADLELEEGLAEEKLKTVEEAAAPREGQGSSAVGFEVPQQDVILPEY
# condition_set: at 1 µM
Recorded inhibition by entry
Enter your answer as a number in %; do not include the unit.

Worked examples, 4 compounds total:
NC(=O)c1cc(-c2ccncc2)cc(-c2ccccc2)c1N = -0.82
O=C(Nc1n[nH]c2nc(-c3ccc(O)cc3)c(Br)cc12)C1CC1 = 2.12
C[C@@H](Oc1cc(-n2cnc3ccc(OCC4CCN(C)CC4)cc32)sc1C(N)=O)c1ccccc1Cl = 3.44
C#Cc1cccc(Nc2ncnc3ccc(OCCCCNCCS(C)(=O)=O)cc23)c1 = -2.02

Item under review: `CN(C)CCCNc1nccc(-c2c(-c3ccc(F)cc3)nn3cc(C(F)(F)F)ccc23)n1` . Reported inhibition?
2.27

Repeat with `COc1cc(C)c(N(C)C(=O)CN(C)C)cc1Nc1nc(Nc2cccc(F)c2C(N)=O)c2cc[nH]c2n1`
4.78

Likewise for `O=C(Nc1n[nH]c2cc(-c3ccccc3)ccc12)C1CC1` ?
-1.21

Could you do the same for `Cc1nnc(-c2ccc(C)c(-c3ccc(C(=O)NCc4ccc(Cl)cc4)cc3)c2)o1` , please?
0.46

Moving on to `CCC(=O)Nc1ccc(C)c(-c2ccc(C(=O)NCC3CC3)cc2)c1`
2.05

Another compound to look at: `O=C(Nc1n[nH]c2nc(-c3ccco3)ccc12)C1CC1`
3.02
